Biological target: human PAC1 receptor (PAC1-CHO clonal cell line) (human), P41586
Sequence (P41586 21-468): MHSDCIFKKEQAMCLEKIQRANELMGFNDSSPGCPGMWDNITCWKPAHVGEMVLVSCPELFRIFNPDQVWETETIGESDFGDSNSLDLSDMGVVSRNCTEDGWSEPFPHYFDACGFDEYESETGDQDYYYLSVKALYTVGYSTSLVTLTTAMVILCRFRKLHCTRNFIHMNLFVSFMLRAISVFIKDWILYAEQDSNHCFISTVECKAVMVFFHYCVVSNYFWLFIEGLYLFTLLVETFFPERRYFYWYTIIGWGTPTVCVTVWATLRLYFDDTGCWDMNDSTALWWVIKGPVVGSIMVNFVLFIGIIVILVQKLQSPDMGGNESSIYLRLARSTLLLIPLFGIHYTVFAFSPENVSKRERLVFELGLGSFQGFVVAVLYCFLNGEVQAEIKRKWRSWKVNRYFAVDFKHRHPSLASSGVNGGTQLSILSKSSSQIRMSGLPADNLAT
Assay: cell-based or functional assay
Where no end group is shown, it is not given here. [ ]: non-standard residue; d: D form. The star is where a group is joined. βGlc = OC[C@H]1O[C@@H](*)[C@H](O)[C@@H](O)[C@@H]1O; Nle = CCCC[C@H](N)C(=O)O

- binder: "H[dS]DGIFTDSYSRYRKQ[Nle]AVKKYLAALS(βGlc)L-NH2 (ends and bridges not checked) [Hs…Ñ…-Ser(Glc)-L]"
  EMax (agonist): "-79%"
- binder: "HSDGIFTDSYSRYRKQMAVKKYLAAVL (ends and bridges not checked) [PACAP1-27]"
  EMax (agonist): "100%"
- binder: "HSDGIFTDSYSRYRKQXAVKKYLAAVS (here or on the partner: D-Serine at 2 (s); L-Nor-Leucine at 17 (Ñ, written X in letters); Ser 27 = L-Ser(β-D-Glc))"
  EMax (agonist): "86%"
- binder: "HSDGIFTDSYSRYRKQXAVKKYLAAVLS (here or on the partner: D-Serine at 2 (s); L-Nor-Leucine at 17 (Ñ, written X in letters); Ser 28 = L-Ser(β-D-Glc))"
  EMax (agonist): "85%"
- binder: "HSDGIFTDSYSRYRKQLAVKKYLAAVLS(melibiose)-NH2 […-Ser(Mel)]"
  EMax (agonist): "99%"
- binder: "HSDGIFADSYSRYRKQXAVKKYLAAVLS (here or on the partner: D-Serine at 2 (s); L-Nor-Leucine at 17 (Ñ, written X in letters); Ser 28 = L-Ser(β-D-Glc))"
  EMax (agonist): "-71%"

Origin of values: patent US20240294595A1
